# Test system: 922993-354-T-J3-PDC complex spheroids, viability, % test/control
# assay_protocol: Anticancer human tumor 922993-354-T-J3-PDC patient-derived endometrial carcinoma cell line growth inhibition [CLK]; active = viability on the fitted dose curve at most 10% of control; inactive = the rest
# assay_context: second compound 10 µM; first compound 0.316 µM
Permitted responses: active, inactive

Prompt line: Field: outcome | Entry: C=CC(=O)N1CCN(c2nc(=O)n(-c3c(C)ccnc3C(C)C)c3nc(-c4c(O)cccc4F)c(F)cc23)C(C)C1 (stereo not drawn) + CN1CCN(c2cc(C(=O)Nc3cc4cc(-c5cnn(C)c5)ccc4cn3)ccn2)CC1
Response line: active

Prompt line: Field: outcome | Entry: COc1cccc2c1C(=O)c1c(O)c3c(c(O)c1C2=O)CC(O)(C(=O)CO)CC3OC1CC(N)C(O)C(C)O1 (stereo not drawn) + CN1CCN(c2cc(C(=O)Nc3cc4cc(-c5cnn(C)c5)ccc4cn3)ccn2)CC1
Response line: active

Prompt line: Field: outcome | Entry: C#Cc1c(F)ccc2cc(O)cc(-c3ncc4c(N5CC6CCC(C5)N6)nc(OCC56CCCN5CC(F)C6)nc4c3F)c12 (stereo not drawn) + CNC(=O)c1ccc(Nc2nc(OC3CCCC3)c3c(-c4ccc5nc(C)oc5c4)c[nH]c3n2)c(OC)c1
Response line: inactive

====

# Test system: 922993-354-T-J3-PDC complex spheroids, viability, % test/control
# assay_protocol: Anticancer human tumor 922993-354-T-J3-PDC cell line growth inhibition [CLK];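 also: spheroids exposed to the agents for 7 days before readout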
# assay_context: second compound 1 µM; first compound 0.316 µM; stronger effect = lower value
readout_name: viability, T/C (%)
A number alone suffices; assume %.

Prompt line: Answer with the recorded viability, T/C for the compound listed here: C=CC(=O)N1CCN(c2nc(=O)n(-c3c(C)ccnc3C(C)C)c3nc(-c4c(O)cccc4F)c(F)cc23)C(C)C1 (stereo not drawn) + CNC(=O)c1ccc(Nc2nc(OC3CCCC3)c3c(-c4ccc5nc(C)oc5c4)c[nH]c3n2)c(OC)c1
Response line: 34.6

Prompt line: Answer with the recorded viability, T/C for the compound listed here: O=C(c1cc(Cc2n[nH]c(=O)c3ccccc23)ccc1F)N1CCN(C(=O)C2CC2)CC1 + CNC(=O)c1ccc(Nc2nc(OC3CCCC3)c3c(-c4ccc5nc(C)oc5c4)c[nH]c3n2)c(OC)c1
Response line: 32.3

Prompt line: Answer with the recorded viability, T/C for the compound listed here: CC1COCCN1c1cc(C2(S(C)(=N)=O)CC2)nc(-c2ccnc3[nH]ccc23)n1 (stereo not drawn) + CNC(=O)c1ccc(Nc2nc(OC3CCCC3)c3c(-c4ccc5nc(C)oc5c4)c[nH]c3n2)c(OC)c1
Response line: 34.1

====

# Tested on: 922993-354-T-J3-PDC complex spheroids, viability, % test/control
# assay_protocol: Anticancer human tumor 922993-354-T-J3-PDC cell line growth inhibition [CLK];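 also: spheroids exposed to the agents for 7 days before readout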
# assay_context: second compound 0.0316 µM; first compound 0.00316 µM; stronger effect = lower value
readout_name: viability, T/C (%)
A number alone suffices; assume %.

Prompt line: Specify the recorded viability, T/C for CCN1CCN(Cc2ccc(Nc3ncc(F)c(-c4cc(F)c5nc(C)n(C(C)C)c5c4)n3)nc2)CC1 + CNC(=O)c1ccc(Nc2nc(OC3CCCC3)c3c(-c4ccc5nc(C)oc5c4)c[nH]c3n2)c(OC)c1 , system: 922993-354-T-J3-PDC complex spheroids, viability, % test/control.
Response line: 106

Prompt line: Specify the recorded viability, T/C for Cn1ncnc1[C@H]1c2n[nH]c(=O)c3cc(F)cc(c23)N[C@@H]1c1ccc(F)cc1 + CNC(=O)c1ccc(Nc2nc(OC3CCCC3)c3c(-c4ccc5nc(C)oc5c4)c[nH]c3n2)c(OC)c1 , system: 922993-354-T-J3-PDC complex spheroids, viability, % test/control.
Response line: 88.9

Prompt line: Specify the recorded viability, T/C for CCN1CCN(Cc2ccc(Nc3ncc(F)c(-c4cc(F)c5nc(C)n(C(C)C)c5c4)n3)nc2)CC1 + CN1CCN(c2cc(C(=O)Nc3cc4cc(-c5cnn(C)c5)ccc4cn3)ccn2)CC1 , system: 922993-354-T-J3-PDC complex spheroids, viability, % test/control.
Response line: 106

Prompt line: Specify the recorded viability, T/C for Cn1ncnc1[C@H]1c2n[nH]c(=O)c3cc(F)cc(c23)N[C@@H]1c1ccc(F)cc1 + CN1CCN(c2cc(C(=O)Nc3cc4cc(-c5cnn(C)c5)ccc4cn3)ccn2)CC1 , system: 922993-354-T-J3-PDC complex spheroids, viability, % test/control.
Response line: 104

Prompt line: Specify the recorded viability, T/C for CCc1c2c(nc3ccc(O)cc13)-c1cc3c(c(=O)n1C2)COC(=O)[C@]3(O)CC + CN1CCN(c2cc(C(=O)Nc3cc4cc(-c5cnn(C)c5)ccc4cn3)ccn2)CC1 , system: 922993-354-T-J3-PDC complex spheroids, viability, % test/control.
Response line: 96.4

These data points were gathered from PubChem BioAssay AID2060606.
